Just for reference, paper PMC11738990 is where these values come from.

Test system: NHDF cells
EXPERIMENTAL DETAILS: α-SMA evaluation in NHDF
Assay type: cell-based, human
TEST PARAMETERS: TGF-β 0.1 ng/ml, 72 h; read-out: IC50, α-SMA expression
MEASURED PARAMETER: IC50 (nM)
Lab book: enter the figure in nM, no units written.

// query For the compound shown here, CC(C)n1cnc(-c2ccc(F)cc2)c1-c1nc(C(=O)Nc2ccc(N3CCN(C)CC3)cc2)c[nH]1 , give the reported IC50.
// result 25

###

Test system: NHDF cells
EXPERIMENTAL DETAILS: Fibronectin and procollagen I in supernatant (ELISA)
Assay type: cell-based, human
TEST PARAMETERS: TGF-β 10 ng/ml, 72 h; read-out: IC50, procollagen I in supernatant
MEASURED PARAMETER: IC50

// query Fill in the recorded IC50 for this compound, with NHDF cells as test system: CC(C)n1cnc(-c2ccc(F)cc2)c1-c1nc(C(=O)Nc2ccc(N3CCN(C)CC3)cc2)c[nH]1
// result ~0.232 µM
